Tested on: normal (WI38 and MRC5) cell lines
Assay: CellTiter-Glo cell viability, normal cell lines (summary)
Format: cell-based
Conditions: Homo sapiens; 72 hours
Procedure: Cells were seeded in 96-well plates at a density of 5×10^3 cells per well. 20 μL of CellTiter-Glo® Reagent was added directly to the wells, following the manufacturer's protocol, and bioluminescence signal was determined using an IVIS imaging system. […]
TEST READOUT: IC50

// field: IC50; key: Cn1c(=O)c2[nH]c(Nc3ccccc3)nc2n(C)c1=O ; value = ~650 µM
